TEST_TARGET: Neuronal acetylcholine receptor subunit alpha-7 (Homo sapiens, UniProt P36544)
Sequence (P36544 whole entry): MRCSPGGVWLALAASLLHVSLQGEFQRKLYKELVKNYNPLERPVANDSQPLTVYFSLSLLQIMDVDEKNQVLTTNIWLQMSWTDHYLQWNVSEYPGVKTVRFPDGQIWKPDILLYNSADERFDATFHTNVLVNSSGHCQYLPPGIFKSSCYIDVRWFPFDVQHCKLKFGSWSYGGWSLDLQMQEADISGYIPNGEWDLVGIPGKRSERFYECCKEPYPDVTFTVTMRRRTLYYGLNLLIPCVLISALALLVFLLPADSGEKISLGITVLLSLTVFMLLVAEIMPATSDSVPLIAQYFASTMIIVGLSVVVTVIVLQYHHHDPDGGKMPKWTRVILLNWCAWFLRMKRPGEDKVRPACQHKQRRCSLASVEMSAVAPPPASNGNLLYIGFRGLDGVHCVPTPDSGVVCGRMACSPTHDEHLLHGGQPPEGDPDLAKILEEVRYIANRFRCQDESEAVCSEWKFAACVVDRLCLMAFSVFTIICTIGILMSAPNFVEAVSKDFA
ASSAY_INFO: Displacement of [3H]epibatidine from human alpha7 nAChR expressed in human HEK/RIC3 cells
pKi: −log10 of the molar value.

{"COMPOUND": "N#Cc1cncc(C2=C[C@@H]3CNC[C@H](C2)C3)c1", "TEST_TARGET": "Neuronal acetylcholine receptor subunit alpha-7 (Homo sapiens, UniProt P36544)", "VALUE_PREFIX": "=", "pKi": 7.10}
{"COMPOUND": "N#Cc1cncc(C2=C[C@H]3CNC[C@@H](C2)C3)c1", "TEST_TARGET": "Neuronal acetylcholine receptor subunit alpha-7 (Homo sapiens, UniProt P36544)", "VALUE_PREFIX": "=", "pKi": 7.14}
{"COMPOUND": "C1=C(c2cncc(Oc3ccccc3)c2)CC2CNCC1C2 (stereo unspecified)", "TEST_TARGET": "Neuronal acetylcholine receptor subunit alpha-7 (Homo sapiens, UniProt P36544)", "VALUE_PREFIX": "=", "pKi": 7.66}
{"COMPOUND": "C1=C(c2cccnc2)CC2CNCC1C2 (racemic)", "TEST_TARGET": "Neuronal acetylcholine receptor subunit alpha-7 (Homo sapiens, UniProt P36544)", "VALUE_PREFIX": "=", "pKi": 8.40}
{"COMPOUND": "CN1CC2C=C(c3cncc(C#N)c3)CC(C2)C1 (stereo unspecified)", "TEST_TARGET": "Neuronal acetylcholine receptor subunit alpha-7 (Homo sapiens, UniProt P36544)", "VALUE_PREFIX": "<", "pKi": 5.00}
{"COMPOUND": "COc1cccc(Oc2cncc(C3=CC4CNCC(C3)C4)c2)c1 (stereo unspecified)", "TEST_TARGET": "Neuronal acetylcholine receptor subunit alpha-7 (Homo sapiens, UniProt P36544)", "VALUE_PREFIX": "=", "pKi": 7.89}

----------
TEST_TARGET: Neuronal acetylcholine receptor; alpha4/beta2 (Homo sapiens, UniProt P17787+P43681)
Sequence (P17787 whole entry): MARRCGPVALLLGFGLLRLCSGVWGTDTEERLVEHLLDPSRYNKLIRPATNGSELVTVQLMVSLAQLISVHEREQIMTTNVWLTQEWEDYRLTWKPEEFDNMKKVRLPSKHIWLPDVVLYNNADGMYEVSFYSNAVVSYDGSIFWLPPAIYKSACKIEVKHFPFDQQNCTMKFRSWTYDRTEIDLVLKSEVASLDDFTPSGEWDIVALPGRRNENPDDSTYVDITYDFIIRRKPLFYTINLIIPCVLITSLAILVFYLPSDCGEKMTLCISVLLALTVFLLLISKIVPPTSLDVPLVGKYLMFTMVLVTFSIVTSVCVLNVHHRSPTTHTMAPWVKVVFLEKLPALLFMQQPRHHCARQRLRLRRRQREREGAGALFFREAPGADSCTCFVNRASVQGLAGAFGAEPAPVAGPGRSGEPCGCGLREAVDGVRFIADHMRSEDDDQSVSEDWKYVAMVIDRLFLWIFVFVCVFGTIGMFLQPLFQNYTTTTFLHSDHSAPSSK
Sequence (P43681 whole entry): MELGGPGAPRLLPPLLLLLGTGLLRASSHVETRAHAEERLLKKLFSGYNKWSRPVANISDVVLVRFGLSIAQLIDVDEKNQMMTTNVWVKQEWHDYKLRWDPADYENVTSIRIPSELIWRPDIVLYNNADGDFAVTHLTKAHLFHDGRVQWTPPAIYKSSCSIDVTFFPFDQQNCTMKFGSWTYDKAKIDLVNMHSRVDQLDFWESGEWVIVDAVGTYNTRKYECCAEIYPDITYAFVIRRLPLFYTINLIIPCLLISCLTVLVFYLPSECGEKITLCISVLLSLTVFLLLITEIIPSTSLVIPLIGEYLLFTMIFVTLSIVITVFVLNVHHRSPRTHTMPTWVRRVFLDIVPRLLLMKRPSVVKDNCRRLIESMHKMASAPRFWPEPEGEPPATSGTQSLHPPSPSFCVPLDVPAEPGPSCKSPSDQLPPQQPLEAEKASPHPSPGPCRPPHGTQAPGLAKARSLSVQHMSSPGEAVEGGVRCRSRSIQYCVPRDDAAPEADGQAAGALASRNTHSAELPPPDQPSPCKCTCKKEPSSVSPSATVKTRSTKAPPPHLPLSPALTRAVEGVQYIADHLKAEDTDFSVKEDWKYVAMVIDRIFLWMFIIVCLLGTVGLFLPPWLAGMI
ASSAY_INFO: Displacement of [3H]nicotine from human alpha4beta2 nAChR expressed in human SH-EP1 cells
Format: cell-based
# Ki listing for each entry below
MEASURED_PARAMETER: Ki

{"COMPOUND": "CC(C)Oc1cncc(C2=CC3CNCC(C2)C3)c1 (stereo not drawn)", "TEST_TARGET": "Neuronal acetylcholine receptor; alpha4/beta2 (Homo sapiens, UniProt P17787+P43681)", "MEASURED_PARAMETER": "Ki", "RECORDED_MEASUREMENT": "0.26 nM"}
{"COMPOUND": "Clc1cccc(Oc2cncc(C3=CC4CNCC(C3)C4)c2)c1 (stereo not drawn)", "TEST_TARGET": "Neuronal acetylcholine receptor; alpha4/beta2 (Homo sapiens, UniProt P17787+P43681)", "MEASURED_PARAMETER": "Ki", "RECORDED_MEASUREMENT": "1 nM"}
{"COMPOUND": "CN1CC2C=C(c3ccc(Cl)nc3)CC(C2)C1 (stereo not drawn)", "TEST_TARGET": "Neuronal acetylcholine receptor; alpha4/beta2 (Homo sapiens, UniProt P17787+P43681)", "MEASURED_PARAMETER": "Ki", "RECORDED_MEASUREMENT": "22 nM"}
{"COMPOUND": "Cc1ccc(C2=CC3CNCC(C2)C3)cn1 (stereo not drawn)", "TEST_TARGET": "Neuronal acetylcholine receptor; alpha4/beta2 (Homo sapiens, UniProt P17787+P43681)", "MEASURED_PARAMETER": "Ki", "RECORDED_MEASUREMENT": "0.3 nM"}
{"COMPOUND": "COc1cc(C2=CC3CNCC(C2)C3)cnc1Cl (stereo not drawn)", "TEST_TARGET": "Neuronal acetylcholine receptor; alpha4/beta2 (Homo sapiens, UniProt P17787+P43681)", "MEASURED_PARAMETER": "Ki", "RECORDED_MEASUREMENT": "0.4 nM"}
{"COMPOUND": "CN1CC2C=C(c3cncc(C#N)c3)CC(C2)C1 (stereo not drawn)", "TEST_TARGET": "Neuronal acetylcholine receptor; alpha4/beta2 (Homo sapiens, UniProt P17787+P43681)", "MEASURED_PARAMETER": "Ki", "RECORDED_MEASUREMENT": "24 nM"}
{"COMPOUND": "C1=C(c2cncnc2)CC2CNCC1C2 (stereo not drawn)", "TEST_TARGET": "Neuronal acetylcholine receptor; alpha4/beta2 (Homo sapiens, UniProt P17787+P43681)", "MEASURED_PARAMETER": "Ki", "RECORDED_MEASUREMENT": "0.2 nM"}
{"COMPOUND": "N#Cc1cncc(C2=C[C@H]3CNC[C@@H](C2)C3)c1", "TEST_TARGET": "Neuronal acetylcholine receptor; alpha4/beta2 (Homo sapiens, UniProt P17787+P43681)", "MEASURED_PARAMETER": "Ki", "RECORDED_MEASUREMENT": "0.3 nM"}
{"COMPOUND": "CN1C[C@H]2C=C(c3cccnc3)C[C@H](C2)C1", "TEST_TARGET": "Neuronal acetylcholine receptor; alpha4/beta2 (Homo sapiens, UniProt P17787+P43681)", "MEASURED_PARAMETER": "Ki", "RECORDED_MEASUREMENT": "2.1 nM"}
{"COMPOUND": "N#Cc1cncc(C2=CC3CNCC(C2)C3)c1 (stereo not drawn)", "TEST_TARGET": "Neuronal acetylcholine receptor; alpha4/beta2 (Homo sapiens, UniProt P17787+P43681)", "MEASURED_PARAMETER": "Ki", "RECORDED_MEASUREMENT": "0.6 nM"}
{"COMPOUND": "CN1CC2C=C(c3cncc(OCc4ccccc4)c3)CC(C2)C1 (stereo not drawn)", "TEST_TARGET": "Neuronal acetylcholine receptor; alpha4/beta2 (Homo sapiens, UniProt P17787+P43681)", "MEASURED_PARAMETER": "Ki", "RECORDED_MEASUREMENT": "1.7 nM"}
{"COMPOUND": "CN1CC2C=C(c3cnccc3C#N)CC(C2)C1 (stereo not drawn)", "TEST_TARGET": "Neuronal acetylcholine receptor; alpha4/beta2 (Homo sapiens, UniProt P17787+P43681)", "MEASURED_PARAMETER": "Ki", "RECORDED_MEASUREMENT": "3420 nM"}
{"COMPOUND": "Fc1cncc(C2=CC3CNCC(C2)C3)c1 (stereo not drawn)", "TEST_TARGET": "Neuronal acetylcholine receptor; alpha4/beta2 (Homo sapiens, UniProt P17787+P43681)", "MEASURED_PARAMETER": "Ki", "RECORDED_MEASUREMENT": "0.3 nM"}

Source listed as ChEMBL document CHEMBL2176949.
